Data provenance: the kinase profiling compilation of Christmann-Franck et al. (2016)

# system: JAK1 JH1 catalytic (human)
# assay_protocol: KINOMEscan competition binding
# conditions_used: compound 10.0 µM
Consider the following compounds; for each one, report its kinase still bound, per cent of control.
Give bare numbers, in %.

// solved cases for kinase still bound, per cent of control follow
compound: COc1cc(C)c(Sc2cnc(NC(=O)c3ccc(CNC(C)C(C)C)cc3)s2)cc1C(=O)N1CCN(C(C)=O)CC1 (stereo not drawn)
kinase still bound, per cent of control (%): 100

compound: COc1cc(N2CCC(C(N)=O)CC2)ccc1Nc1nc(N)c(Cl)c(Nc2ccccc2S(=O)(=O)C(C)C)n1
kinase still bound, per cent of control (%): 100

compound: Cc1cn(-c2cc(C(=O)Nc3ccc(C)c(NC(=O)c4ccno4)c3)cc(C(F)(F)F)c2)cn1
kinase still bound, per cent of control (%): 100

compound: CCN1CCN(Cc2ccc(NC(=O)c3ccc(C)c(/C=C/c4cnc5[nH]ccc5c4OC)c3)cc2C(F)(F)F)CC1
kinase still bound, per cent of control (%): 39

compound: CCOc1cc(N2CCC(O)CC2)ccc1Nc1ncc2c(n1)N(C)c1ccccc1C(=O)N2C
kinase still bound, per cent of control (%): 100

compound: O=c1[nH]c2ccccc2n1C1CCN(Cc2ccc(-c3nc4cc5[nH]cnc5cc4nc3-c3ccccc3)cc2)CC1
kinase still bound, per cent of control (%): 100

compound: N#Cc1cc(-c2ccnc(Nc3ccc(-n4cnc(-c5cccnc5)n4)cc3)n2)cc(N2CCOCC2)c1
kinase still bound, per cent of control (%): 59

Could you now look at the following compound, please?
Given the entry CC1=C(C(=O)Nc2cc3cn[nH]c3cc2F)C(c2ccc(C(F)(F)F)cc2)CC(=O)N1 (stereo not drawn) , report its measured kinase still bound, per cent of control.
28

---

# system: PTK2 (human) (UniProt Q05397)
# Sequence (Q05397 whole entry, looked up): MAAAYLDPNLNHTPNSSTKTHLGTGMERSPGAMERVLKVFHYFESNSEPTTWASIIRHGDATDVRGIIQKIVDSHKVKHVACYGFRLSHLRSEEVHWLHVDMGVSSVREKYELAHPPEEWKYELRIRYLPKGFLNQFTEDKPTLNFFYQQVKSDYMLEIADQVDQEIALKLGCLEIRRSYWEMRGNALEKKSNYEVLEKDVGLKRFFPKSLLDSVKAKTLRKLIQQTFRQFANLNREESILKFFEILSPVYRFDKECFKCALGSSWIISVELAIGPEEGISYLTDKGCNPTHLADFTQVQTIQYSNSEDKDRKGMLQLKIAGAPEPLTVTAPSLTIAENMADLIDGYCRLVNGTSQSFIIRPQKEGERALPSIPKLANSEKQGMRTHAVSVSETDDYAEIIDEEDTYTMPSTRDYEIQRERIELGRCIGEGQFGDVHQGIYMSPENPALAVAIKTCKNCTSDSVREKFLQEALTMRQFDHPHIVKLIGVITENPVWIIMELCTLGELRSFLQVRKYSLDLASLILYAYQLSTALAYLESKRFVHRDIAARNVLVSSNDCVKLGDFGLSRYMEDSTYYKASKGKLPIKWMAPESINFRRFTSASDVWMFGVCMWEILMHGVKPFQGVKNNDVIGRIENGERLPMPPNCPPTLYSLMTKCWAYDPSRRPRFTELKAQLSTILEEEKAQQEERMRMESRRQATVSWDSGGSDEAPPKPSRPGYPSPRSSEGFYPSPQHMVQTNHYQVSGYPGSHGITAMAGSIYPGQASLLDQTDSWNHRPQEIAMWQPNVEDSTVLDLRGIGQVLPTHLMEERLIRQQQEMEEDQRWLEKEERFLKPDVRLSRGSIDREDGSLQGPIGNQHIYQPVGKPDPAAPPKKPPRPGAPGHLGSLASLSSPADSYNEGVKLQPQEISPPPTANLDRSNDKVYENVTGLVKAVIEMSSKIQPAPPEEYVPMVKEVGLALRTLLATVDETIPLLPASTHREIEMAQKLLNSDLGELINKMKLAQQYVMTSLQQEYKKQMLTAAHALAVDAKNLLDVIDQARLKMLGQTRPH
# assay_protocol: KINOMEscan competition binding
# conditions_used: compound 10.0 µM
observed_property: kinase still bound, per cent of control (%)
Numbers only, in %.

compound: CCN1CCN(Cc2ccc(NC(=O)c3ccc(C)c(/C=C/c4cnc5[nH]ccc5c4OC)c3)cc2C(F)(F)F)CC1
system: PTK2 (human) (UniProt Q05397)
units_symbol: %
kinase still bound, per cent of control: 67
//
compound: Cc1cn(-c2cc(C(=O)Nc3ccc(C)c(NC(=O)c4ccno4)c3)cc(C(F)(F)F)c2)cn1
system: PTK2 (human) (UniProt Q05397)
units_symbol: %
kinase still bound, per cent of control: 100
//
compound: CC1=C(C(=O)Nc2cc3cn[nH]c3cc2F)C(c2ccc(C(F)(F)F)cc2)CC(=O)N1 (stereo not drawn)
system: PTK2 (human) (UniProt Q05397)
units_symbol: %
kinase still bound, per cent of control: 79
//
compound: CNC(=O)Nc1ccc(-c2nc(N3CC4CCC(C3)O4)c3cnn(C4CCC5(CC4)OCCO5)c3n2)cc1
system: PTK2 (human) (UniProt Q05397)
units_symbol: %
kinase still bound, per cent of control: 78
//
compound: N#C/C(=C1/Nc2ccccc2S1)c1ccnc(NCCc2cccnc2)n1
system: PTK2 (human) (UniProt Q05397)
units_symbol: %
kinase still bound, per cent of control: 100

Dear colleague, could you send me kinase still bound, per cent of control for each of the items below? Thanks.
1. COc1cc2ncnc(Nc3cccc(Cl)c3)c2cc1OC
2. O=c1[nH]c2ccccc2n1C1CCN(Cc2ccc(-c3nc4cc5[nH]cnc5cc4nc3-c3ccccc3)cc2)CC1
3. N#Cc1cc(-c2ccnc(Nc3ccc(-n4cnc(-c5cccnc5)n4)cc3)n2)cc(N2CCOCC2)c1
4. CCOc1cc(N2CCC(O)CC2)ccc1Nc1ncc2c(n1)N(C)c1ccccc1C(=O)N2C

100
95
77
100

For each entry beneath this line, provide reported kinase still bound, per cent of control.
1. COc1cc(N2CCC(C(N)=O)CC2)ccc1Nc1nc(N)c(Cl)c(Nc2ccccc2S(=O)(=O)C(C)C)n1
2. COc1ccc(N(C(=O)Oc2cc(C(=O)Nc3cccc(C(F)(F)F)c3)ccc2C)c2ccnc(Nc3ccc(N4CCN(C)CC4)cc3)n2)c(OC)c1
3. COc1cc(C)c(Sc2cnc(NC(=O)c3ccc(CNC(C)C(C)C)cc3)s2)cc1C(=O)N1CCN(C(C)=O)CC1 (stereo not drawn)

1: 0; 2: 4.6; 3: 100

Return reported kinase still bound, per cent of control values for all items listed beneath this line.
1. C=CC(=O)Nc1ccc(C(=O)c2sc(Nc3ccc(N4CCN(C)CC4)cc3OC)nc2N)cc1
2. CC(=O)c1c(C)c2cnc(Nc3ccc(N4CCNCC4)cn3)nc2n(C2CCCC2)c1=O
3. CCCS(=O)(=O)Nc1ccc(F)c(C(=O)c2c[nH]c3ncc(Cl)cc23)c1F
4. COc1cc2c(Nc3ccc(NC(=O)c4ccccc4)cc3)ncnc2cc1OCCCN1CCOCC1
5. CCN(CCO)CCCOc1ccc2c(Nc3cc(CC(=O)Nc4cccc(F)c4)[nH]n3)ncnc2c1
6. CCc1nc(-c2cccc(C)c2)c(-c2ccnc(NC(=O)c3ccccc3)c2)s1

51
61
51
62
64
96

---

# system: EPHB3 (human)
# assay_protocol: KINOMEscan competition binding
# conditions_used: compound 10.0 µM
observed_property: kinase still bound, per cent of control (%)
One number for each entry, in %.

As a guide, the following entries are already answered.
structure_notation: N#C/C(=C1/Nc2ccccc2S1)c1ccnc(NCCc2cccnc2)n1
kinase still bound, per cent of control [%]: 100

structure_notation: COc1cc(N2CCC(C(N)=O)CC2)ccc1Nc1nc(N)c(Cl)c(Nc2ccccc2S(=O)(=O)C(C)C)n1
kinase still bound, per cent of control [%]: 100

structure_notation: CCN(CCO)CCCOc1ccc2c(Nc3cc(CC(=O)Nc4cccc(F)c4)[nH]n3)ncnc2c1
kinase still bound, per cent of control [%]: 100

structure_notation: COc1cc2c(Nc3ccc(NC(=O)c4ccccc4)cc3)ncnc2cc1OCCCN1CCOCC1
kinase still bound, per cent of control [%]: 100

Field: next molecule
State the recorded kinase still bound, per cent of control for this entry: CNC(=O)Nc1ccc(-c2nc(N3CC4CCC(C3)O4)c3cnn(C4CCC5(CC4)OCCO5)c3n2)cc1
92

---

# system: PIM1 (human) (UniProt P11309)
# Sequence (P11309 whole entry, looked up): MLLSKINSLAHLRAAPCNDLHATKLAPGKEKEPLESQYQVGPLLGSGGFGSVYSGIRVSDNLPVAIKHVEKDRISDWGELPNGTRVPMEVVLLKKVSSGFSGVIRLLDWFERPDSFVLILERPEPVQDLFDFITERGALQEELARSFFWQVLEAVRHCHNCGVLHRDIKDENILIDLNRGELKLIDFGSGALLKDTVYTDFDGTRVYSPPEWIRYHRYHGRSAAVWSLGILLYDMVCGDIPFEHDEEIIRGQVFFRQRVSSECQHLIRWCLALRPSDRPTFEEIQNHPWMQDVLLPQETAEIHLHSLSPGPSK
# assay_protocol: KINOMEscan competition binding
# conditions_used: compound 10.0 µM
Hi there, I'd appreciate the recorded kinase still bound, per cent of control for every entry that follows.
One number for each entry, in %.

Worked cases, answers included:
structure_notation: CCc1nc(-c2cccc(C)c2)c(-c2ccnc(NC(=O)c3ccccc3)c2)s1
kinase still bound, per cent of control (%): 87

structure_notation: COc1cc(N2CCC(C(N)=O)CC2)ccc1Nc1nc(N)c(Cl)c(Nc2ccccc2S(=O)(=O)C(C)C)n1
kinase still bound, per cent of control (%): 100

structure_notation: Cc1cn(-c2cc(C(=O)Nc3ccc(C)c(NC(=O)c4ccno4)c3)cc(C(F)(F)F)c2)cn1
kinase still bound, per cent of control (%): 100

structure_notation: CCN(CCO)CCCOc1ccc2c(Nc3cc(CC(=O)Nc4cccc(F)c4)[nH]n3)ncnc2c1
kinase still bound, per cent of control (%): 100

structure_notation: CCN1CCN(Cc2ccc(NC(=O)c3ccc(C)c(/C=C/c4cnc5[nH]ccc5c4OC)c3)cc2C(F)(F)F)CC1
kinase still bound, per cent of control (%): 100

structure_notation: COc1ccc(N(C(=O)Oc2cc(C(=O)Nc3cccc(C(F)(F)F)c3)ccc2C)c2ccnc(Nc3ccc(N4CCN(C)CC4)cc3)n2)c(OC)c1
kinase still bound, per cent of control (%): 100

structure_notation: N#Cc1cc(-c2ccnc(Nc3ccc(-n4cnc(-c5cccnc5)n4)cc3)n2)cc(N2CCOCC2)c1
kinase still bound, per cent of control (%): 78

Next item in the queue.
Recorded kinase still bound, per cent of control for N#C/C(=C1/Nc2ccccc2S1)c1ccnc(NCCc2cccnc2)n1 with PIM1 (human) (UniProt P11309), please?
4.4

---

Give measured kinase still bound, per cent of control for each item. Keep answers brief.
# system: MAP4K3 (human) (UniProt Q8IVH8)
# Sequence (Q8IVH8 whole entry, looked up): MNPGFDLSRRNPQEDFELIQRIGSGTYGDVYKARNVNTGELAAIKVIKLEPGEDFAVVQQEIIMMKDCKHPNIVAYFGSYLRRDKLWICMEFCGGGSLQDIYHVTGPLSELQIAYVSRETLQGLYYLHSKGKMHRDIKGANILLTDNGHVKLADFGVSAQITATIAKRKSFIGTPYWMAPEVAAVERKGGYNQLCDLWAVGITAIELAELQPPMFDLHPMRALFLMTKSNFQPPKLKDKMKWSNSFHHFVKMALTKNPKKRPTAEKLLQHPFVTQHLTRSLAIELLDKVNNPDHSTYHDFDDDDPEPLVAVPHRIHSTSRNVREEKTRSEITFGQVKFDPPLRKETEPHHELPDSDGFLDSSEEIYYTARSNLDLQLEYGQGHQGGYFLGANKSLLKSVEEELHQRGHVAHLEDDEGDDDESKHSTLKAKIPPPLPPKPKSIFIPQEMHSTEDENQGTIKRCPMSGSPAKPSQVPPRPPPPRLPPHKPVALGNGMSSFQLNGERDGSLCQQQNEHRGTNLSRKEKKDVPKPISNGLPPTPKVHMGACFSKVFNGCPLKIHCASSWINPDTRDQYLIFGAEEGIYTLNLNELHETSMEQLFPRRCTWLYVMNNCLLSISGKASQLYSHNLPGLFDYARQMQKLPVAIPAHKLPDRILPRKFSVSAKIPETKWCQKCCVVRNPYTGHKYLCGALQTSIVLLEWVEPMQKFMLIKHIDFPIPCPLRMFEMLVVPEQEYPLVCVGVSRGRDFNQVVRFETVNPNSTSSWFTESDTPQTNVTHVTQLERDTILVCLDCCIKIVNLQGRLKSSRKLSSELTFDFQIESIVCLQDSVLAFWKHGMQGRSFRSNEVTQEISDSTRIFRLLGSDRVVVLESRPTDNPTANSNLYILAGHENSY
# assay_protocol: KINOMEscan competition binding
# conditions_used: compound 10.0 µM
One number for each entry, in %.

compound: CC(=O)c1c(C)c2cnc(Nc3ccc(N4CCNCC4)cn3)nc2n(C2CCCC2)c1=O
kinase still bound, per cent of control [%]: 20
--
compound: CCN(CCO)CCCOc1ccc2c(Nc3cc(CC(=O)Nc4cccc(F)c4)[nH]n3)ncnc2c1
kinase still bound, per cent of control [%]: 51
--
compound: CCN1CCN(Cc2ccc(NC(=O)c3ccc(C)c(/C=C/c4cnc5[nH]ccc5c4OC)c3)cc2C(F)(F)F)CC1
kinase still bound, per cent of control [%]: 14
--
compound: COc1cc(C)c(Sc2cnc(NC(=O)c3ccc(CNC(C)C(C)C)cc3)s2)cc1C(=O)N1CCN(C(C)=O)CC1 (centres undefined)
kinase still bound, per cent of control [%]: 100
--
compound: CCc1nc(-c2cccc(C)c2)c(-c2ccnc(NC(=O)c3ccccc3)c2)s1
kinase still bound, per cent of control [%]: 80
--
compound: COc1cc2c(Nc3ccc(NC(=O)c4ccccc4)cc3)ncnc2cc1OCCCN1CCOCC1
kinase still bound, per cent of control [%]: 70

Parameters: items (list). Returns: kinase still bound, per cent of control for each item.
1. CCOc1cc(N2CCC(O)CC2)ccc1Nc1ncc2c(n1)N(C)c1ccccc1C(=O)N2C
2. N#Cc1cc(-c2ccnc(Nc3ccc(-n4cnc(-c5cccnc5)n4)cc3)n2)cc(N2CCOCC2)c1
3. COc1cc2ncnc(Nc3cccc(Cl)c3)c2cc1OC

1. 100
2. 6.3
3. 100
